Target: T1, rat calcitonin receptor (rat, UniProt P32214 25-516)
T1 construct: whole, on cells; membranes of transiently transfected BHK tk'ts 13 cells (Assay VIII); also called rCTR; rat calcitonin (a) receptor
T1 sequence (looked up): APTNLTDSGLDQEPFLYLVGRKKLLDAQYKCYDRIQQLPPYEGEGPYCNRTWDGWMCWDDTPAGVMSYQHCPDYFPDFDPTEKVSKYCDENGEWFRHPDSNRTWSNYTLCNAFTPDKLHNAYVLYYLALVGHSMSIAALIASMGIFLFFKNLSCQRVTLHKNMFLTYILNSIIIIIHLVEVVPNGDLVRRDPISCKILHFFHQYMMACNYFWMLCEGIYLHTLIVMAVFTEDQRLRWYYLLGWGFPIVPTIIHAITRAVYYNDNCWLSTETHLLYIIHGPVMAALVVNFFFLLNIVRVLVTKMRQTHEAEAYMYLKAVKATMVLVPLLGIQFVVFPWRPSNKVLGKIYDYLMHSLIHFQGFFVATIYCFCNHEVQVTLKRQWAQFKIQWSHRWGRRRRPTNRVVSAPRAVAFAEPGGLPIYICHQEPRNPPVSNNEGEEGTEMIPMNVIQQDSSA
Assay: SPA competition with 125I-calcitonin, membranes of BHK cells with rat calcitonin receptor (Assay VIII)
Numbered stars: 1 amine (or outer) side, 2 acyl side, 3 side chain; on linkers, the order of the positions; unused ones are H or OH. Bridge positions count the residues as written; N and C are the ends. * marks the point of attachment. C20 diacid = O=C(O)CCCCCCCCCCCCCCCCCCC(=O)*; γGlu = O=C(O)[C@H](CCC(=O)[*:2])N[*:1]
RECORDED_METRIC: IC50 (nM)
Just the number in nM, nothing appended.

{C20 diacid-γGlu}-GRCNTATCATQRLANFLRHSSPNFGAIPSSTNVGSNTY-NH2 (disulfide 3-8 (inferred), analogue of human amylin extended by Gly at the N-terminus; also called compound 46) [N^-1-[(4S)-4-carboxy-4-(19-carboxynonadecanoylamino)butanoyl]-Gly[Arg1,Arg17,Pro21,Pro27]-h-amylin]
46.8
{C20 diacid-γGlu}-KCNTATCATQRLAEFLRHSSPNFGAIPSSTNVGPNTY-NH2 (disulfide 2-7 (inferred), analogue of human amylin; also called compound 32)
5.98

Read the entry KCNTATCATQRLAEFLRHSSPNFGAIPSSTNVGSNTY (C20 diacid-gGlu-2xOEG on the alpha amino group of the N-terminal residue (Lys 1); disulfide bridge between the two Cys residues; C-terminal amide, analogue of human amylin; also called compound 19) and write its reported IC50.
95.6
